Test system: P. aeruginosa PAO1
Assay: Compound intracellular accumulation in P. aeruginosa PAO1
Format: cell-based
Conditions: cells treated with 30 µM compound
QUANTITY_NAME: Intracell. Accum, P. aeruginosa PAO1 (nmol/1012 CFU)
Please give a number only; it is taken to be in nmol/1012 CFU.

// worked examples, Intracell. Accum, P. aeruginosa PAO1 included
[[record]]
entry_smiles = "Cc1ccc(CNc2cccc3c2C(=O)NC3=O)c(O)c1"
quantity_name = "Intracell. Accum, P. aeruginosa PAO1"
data_value = 52

[[record]]
entry_smiles = "O=C1NC(=O)c2c(NCc3cc(Cl)ccc3O)cccc21"
quantity_name = "Intracell. Accum, P. aeruginosa PAO1"
data_value = 270


Consider `O=C1NC(=O)c2c(NCc3cc(F)ccc3O)cccc21` . Its measured Intracell. Accum, P. aeruginosa PAO1 is 28

Consider `O=C1NC(=O)c2c(NCc3cc(F)ccc3O)ccc(Br)c21` . Its measured Intracell. Accum, P. aeruginosa PAO1 is 187

Consider `O=C1NC(=O)c2c(NCc3cccc(Br)c3O)cccc21` . Its measured Intracell. Accum, P. aeruginosa PAO1 is 34

Where do the numbers come from? From paper PMC12261321.
